Test: Small angle X-ray scattering (SAXS) of plasmid DNA-gemini surfactant-DOPE complexes
Format: physicochemical
Details: plasmid DNA-gemini surfactant-DOPE complexes
Protocol: SAXS measurements were carried out at beamline X21 at the National Synchrotron Light Source at Brookhaven National Laboratory. Beamline X21 is based on a wiggler source, with a helium gas-cooled Si(111) monochromator selecting the photon energy. […] The scattering pattern is recorded using a 13 cm Mar CCD detector (Mar USA, Evanston, Ill.) located 1.26 m (calibrated with the scattering pattern of silver behenate) downstream of the sample. […]
property: phase / morphology of lipid bilayers from scattering pattern (in words)

{"compound": "CCCCCCCCCCCC[N+](C)(C)CC[N+](C)(C)CCCCCCCCCCCC.[Br-].[Br-] [12-2-12, reference compound]", "reported measurement": "lamellar (L) phase"}
{"compound": "CCCCCCCCCCCC[N+](C)(C)CCN(C)CC[N+](C)(C)CCCCCCCCCCCC", "reported measurement": "lamellar (L) phase"}
